So I've got a bunch of compounds here, and I need their pest or weed control at 250 g/ha values.
- System: Lolium perenne (LOLPE)
- assay explanation: Example A glasshouse herbicide test, pre-emergence, LOLPE
- Assay type: in vivo
- assay conditions: Lolium perenne, pre-emergence, 312 h, Rate 250 g/ha, sprayed after cultivation for one day, evaluated after 13 days, read-out: Pre-Emergence Activity LOLPE (100=total damage to plant; 0=no damage to plant)
Respond with the figure and its unit, in that order.

Query :: // pest or weed control at 250 g/ha lookup, key: COc1ccc(CC2CC(OC(=O)C(C)(C)C)=C(c3c(C)cc(C)cc3C)C2=O)cc1 (stereo not drawn)
Result :: 80%

Query :: State the recorded pest or weed control at 250 g/ha for this entry: Cc1cccc(CC2CC(=O)C(c3c(C)cc(C)cc3C)C2=O)c1 (stereo not drawn)
Result :: 100%

Query :: Fill blank: measured pest or weed control at 250 g/ha of the compound COc1ccc(CC2CC(=O)C(c3c(C)cc(C)cc3C)C2=O)cc1 (stereo not drawn) is ____.
Result :: 100%

Query :: Given the entry COC1CCC(/C=C2\CC(=O)C(c3c(C)cc(C)cc3C)C2=O)CC1 (stereo not drawn) , report its measured pest or weed control at 250 g/ha.
Result :: 50%

Query :: Requested field: pest or weed control at 250 g/ha. Item: Cc1cc(C)c(C2C(=O)CC(Cc3cccc(Oc4ccccc4)c3)C2=O)c(C)c1 (stereo not drawn)
Result :: 40%

Query :: Fill in the blank: the reported pest or weed control at 250 g/ha of Cc1cc(C)c(C2C(=O)CC(CC3CCCCCC3)C2=O)c(C)c1 (stereo not drawn) is ____.
Result :: 30%

Query :: Tell me the measured pest or weed control at 250 g/ha of Cc1cc(C)c(C2C(=O)CC(CC3CC(C)CCC3C(C)C)C2=O)c(C)c1 (stereo not drawn) , please.
Result :: 0%

Query :: Data request, read-out pest or weed control at 250 g/ha, for Cc1cc(C)c(C2C(=O)CC(CC3CCCCC3)C2=O)c(C)c1 (stereo not drawn)
Result :: 100%

Query :: State the recorded pest or weed control at 250 g/ha for this entry: Cc1cc(C)c(C2C(=O)CC(CC3CCCCC3C)C2=O)c(C)c1 (stereo not drawn)
Result :: 90%

Query :: Quick one: pest or weed control at 250 g/ha of Cc1cc(C)c(C2C(=O)C/C(=C\C3CC3)C2=O)c(C)c1 (stereo not drawn) ?
Result :: 100%

Query :: What does the data say about its pest or weed control at 250 g/ha? Entry: Cc1cc(C)c(C2C(=O)C/C(=C\C3CCCCC3)C2=O)c(C)c1 (stereo not drawn)
Result :: 100%

Query :: Tell me the measured pest or weed control at 250 g/ha of Cc1cc(C)c(C2=C(OC(=O)C(C)(C)C)CC(Cc3ccc(S(C)(=O)=O)cc3)C2=O)c(C)c1 (stereo not drawn) , please.
Result :: 70%

Query :: Fill blank: measured pest or weed control at 250 g/ha of the compound Cc1cc(C)c(C2C(=O)C/C(=C\C3CCCC3)C2=O)c(C)c1 (stereo not drawn) is ____.
Result :: 100%

Query :: What value of pest or weed control at 250 g/ha has been recorded for this entry: Cc1cc(C)c(C2C(=O)CC(Cc3ccc(-c4csnn4)cc3)C2=O)c(C)c1 (stereo not drawn)
Result :: 70%

Query :: Entry Cc1cccc(C)c1C1C(=O)CC(CC2CCCCC2)C1=O (stereo not drawn) has what pest or weed control at 250 g/ha?
Result :: 80%

Query :: For the compound shown here, Cc1cc(C)c(C2C(=O)CC(Cc3ccc(CS(=O)(=O)c4ccccc4)cc3)C2=O)c(C)c1 (stereo not drawn) , give the reported pest or weed control at 250 g/ha.
Result :: 20%

Query :: Query: pest or weed control at 250 g/ha; subject: Cc1cc(C)c(C2C(=O)CC(Cc3ccccc3)C2=O)c(C)c1 (stereo not drawn)
Result :: 90%

Query :: Which pest or weed control at 250 g/ha is listed for Cc1cc(C)c(C2=C(OC(=O)C(C)(C)C)C(CC3CCC(=O)CC3)CC2=O)c(C)c1 (stereo not drawn) ?
Result :: 90%
